# tgt: Sentrin-specific protease 8 (Homo sapiens, UniProt Q96LD8)
# Sequence (Q96LD8 whole entry): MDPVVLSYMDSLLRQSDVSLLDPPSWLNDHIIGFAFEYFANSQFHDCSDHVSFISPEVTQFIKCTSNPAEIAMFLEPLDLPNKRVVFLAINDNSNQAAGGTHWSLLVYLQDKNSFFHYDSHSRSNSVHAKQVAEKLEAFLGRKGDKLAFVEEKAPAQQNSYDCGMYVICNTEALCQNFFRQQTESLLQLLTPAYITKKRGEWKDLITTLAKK
# Type: functional
Calls of active or inactive are those of the source.
Write down one outcome, taken from active, inactive

Examples from the recorded data:
compound	assigned.label
COc1cc(OC)c([N+](=O)[O-])cc1/C=N/NC(=O)c1ccncc1	active
COc1cc(NCCCNC(C)C)c2nccc(C)c2c1	active
COc1ccc(C(=O)c2c3ccc([N+](=O)[O-])cc3[n+]([O-])n2CCCN)cc1	active
O=C1CCCC2=C1C1(O)C(=O)c3ccccc3C1(O)O2 (centres undefined)	active
CCn1cc(/C=C/C(=O)Nc2ccn(Cc3c(F)c(F)cc(F)c3F)n2)cn1	active

Dear all, I need the recorded test outcome for "Cc1nc2ccccc2n1/N=C/c1ccc([N+](=O)[O-])o1" , thank you. active

Any idea what this test logged for "C[N+]1(C)CCC(=C2c3ccccc3CC(=O)c3sccc32)CC1" ? active

Which outcome was entered for the compound "CCC(CC)C(=O)N(C)c1c(C)nc2c(OCC=C(C)C)cccn12" in this test? inactive

Dear all, I need the recorded test outcome for "CCOC(=O)c1ccc(NC(=O)CN2CCc3ccccc3C2)cc1" , thank you. inactive

* * *

# assay.method.text: Luminescence Cell-Based Dose Confirmation HTS to Identify Activators of 5'UTR Stem-Loop Driven Alpha-Synuclein mRNA Translation in H4 Neuroglioblastoma Cells. [Related pubchem assays: 1829 (Project Summary), 1814 (Primary HTS)]
# Type: functional
Active and inactive are the calls of the source.
I'd be grateful if you could share measured EC50 for these entries.

Below: 6 molecules and their reported EC50.
molecule	EC50
Cc1c(OCC(=O)NCc2cccnc2)ccc2c3c(c(=O)oc12)CCC3	> 120 µM (not active)
Nc1nn(-c2ccccc2)nc1C(=O)OCc1ccccc1	> 120 µM (not active)
CCOC(=O)c1c(C)[nH]c(/C=N/c2ccc(OC)cc2)c1O	16.5 µM (active)
CC(C)(C)c1ccc(OCc2ccc(C(=O)NCc3cccnc3)o2)cc1	6.24 µM (active)
N#Cc1ccc(-c2ccc(Cl)cc2)nc1SCC(=O)c1cccc(Cl)c1	> 120 µM (not active)
Cn1cc(/C=C(\NC(=O)c2ccccc2Cl)C(=O)NCCN2CCOCC2)c2ccccc21	> 120 µM (not active)

Just so you know, measured EC50 for Cc1nc(C(=O)Nc2ccccc2)sc1C1(C)CC(c2cccnc2)=NO1 (configuration not stated) came out at 10.1 µM (active)

* * *

Could you please report measured AC50 for the items listed next?
# tgt: Cytochrome P450 1A2 (Homo sapiens)
# Sequence (P05177 whole entry): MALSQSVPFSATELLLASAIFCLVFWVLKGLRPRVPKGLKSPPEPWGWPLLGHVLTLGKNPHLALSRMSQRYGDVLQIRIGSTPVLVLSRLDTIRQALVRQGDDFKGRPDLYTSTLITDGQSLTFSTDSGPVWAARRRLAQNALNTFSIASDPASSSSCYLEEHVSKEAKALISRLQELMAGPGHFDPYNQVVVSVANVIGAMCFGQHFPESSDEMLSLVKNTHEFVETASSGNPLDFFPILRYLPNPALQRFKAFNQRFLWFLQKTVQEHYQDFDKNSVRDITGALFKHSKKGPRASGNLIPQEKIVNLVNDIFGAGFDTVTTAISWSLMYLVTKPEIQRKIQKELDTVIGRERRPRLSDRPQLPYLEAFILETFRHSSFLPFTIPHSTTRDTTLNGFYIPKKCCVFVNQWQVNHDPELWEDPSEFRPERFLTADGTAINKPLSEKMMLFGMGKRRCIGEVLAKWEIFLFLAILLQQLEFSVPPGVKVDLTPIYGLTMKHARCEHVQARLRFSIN

Here is how some compounds turned out for AC50.
compound	AC50
O=C(NCc1nc2ccccc2[nH]1)[C@H]1C[C@@H]1[C@H](NP(=O)(c1ccccc1)c1ccccc1)c1ccccc1	15.8 µM (inconclusive)
CCN(CC)C(=O)CCNS(=O)(=O)c1ccc(C)cc1	28.2 µM (inconclusive)

Field: AC50. Fill in for each record below.
1. CCOC(=O)c1ccc(N/C=C/C(=O)c2ccc(OC)cc2)cc1
2. COc1ccc(Oc2ncc3nc(-c4cn(C)c5ccccc45)c(=O)n(CCC#N)c3n2)cc1

1: 22.4 µM (inconclusive); 2: 2 µM (inconclusive)

Report AC50 for every entry below.
1. CCCCCCN(CCCCCC)C(=O)Cc1c(-c2ccc(F)cc2)[nH]c2ccccc12
2. COC(=O)c1ccc(NC(C)=O)o1
3. O=c1[nH]c2ccccc2n1CCCN1CCN(C(c2ccccc2)c2ccccc2)CC1 [OXATOMIDE]

15.8 µM (inconclusive)
22.4 µM (inconclusive)
25.1 µM (inconclusive)

Please report AC50 for every entry that follows.
1. COC(=O)[C@@]1(Cc2ccc(F)cc2)[C@H]2c3cc(C(=O)N4CCCC4)n(CCc4ccc(OC)c(Br)c4)c3C[C@H]2CN1C(=O)c1ccccc1
2. CCCCN1C(=O)/C(=C\c2ccco2)C(=O)N(CCc2ccccc2)C1=O

1. 15.8 µM (inconclusive)
2. 28.2 µM (inconclusive)
